Cited source for all entries: paper PMC4336329

Target: human ether-à-go-go-related gene (hERG) potassium channel (human, UniProt Q12809);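 also: peak tail current of the secondary pulse compared with the same well before compound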
Sequence (Q12809 whole entry, looked up): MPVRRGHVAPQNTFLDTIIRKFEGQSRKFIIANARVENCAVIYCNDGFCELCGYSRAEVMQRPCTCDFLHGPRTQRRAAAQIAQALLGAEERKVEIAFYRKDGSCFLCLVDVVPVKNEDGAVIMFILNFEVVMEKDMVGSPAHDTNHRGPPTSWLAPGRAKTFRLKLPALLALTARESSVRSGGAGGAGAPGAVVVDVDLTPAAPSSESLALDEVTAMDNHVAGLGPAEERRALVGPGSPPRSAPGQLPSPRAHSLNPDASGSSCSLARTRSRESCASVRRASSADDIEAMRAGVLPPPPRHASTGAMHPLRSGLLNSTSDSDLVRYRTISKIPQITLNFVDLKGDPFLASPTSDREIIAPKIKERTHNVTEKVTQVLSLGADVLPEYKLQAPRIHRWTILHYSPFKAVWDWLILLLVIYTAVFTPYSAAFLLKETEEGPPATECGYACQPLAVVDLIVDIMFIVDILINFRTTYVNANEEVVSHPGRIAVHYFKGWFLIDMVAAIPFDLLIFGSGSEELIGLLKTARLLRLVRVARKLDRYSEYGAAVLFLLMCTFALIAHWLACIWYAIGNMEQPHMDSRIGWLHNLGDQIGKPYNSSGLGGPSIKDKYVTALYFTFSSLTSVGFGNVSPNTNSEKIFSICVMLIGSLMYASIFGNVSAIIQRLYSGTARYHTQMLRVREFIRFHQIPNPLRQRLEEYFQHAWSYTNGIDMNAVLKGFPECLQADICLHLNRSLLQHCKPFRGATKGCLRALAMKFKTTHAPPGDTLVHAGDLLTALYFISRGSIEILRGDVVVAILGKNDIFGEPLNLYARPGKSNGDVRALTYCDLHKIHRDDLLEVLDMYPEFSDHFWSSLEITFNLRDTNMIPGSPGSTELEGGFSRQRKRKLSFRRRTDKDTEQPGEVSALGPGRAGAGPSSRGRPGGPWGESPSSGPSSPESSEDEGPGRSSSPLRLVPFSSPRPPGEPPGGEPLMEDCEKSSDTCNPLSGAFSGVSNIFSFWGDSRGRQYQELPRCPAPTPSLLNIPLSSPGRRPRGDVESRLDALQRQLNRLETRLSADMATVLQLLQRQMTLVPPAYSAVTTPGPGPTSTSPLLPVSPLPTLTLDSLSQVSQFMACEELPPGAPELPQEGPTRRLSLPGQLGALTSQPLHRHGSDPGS
Assay: primary screen, population patch clamp on CHO cells stably expressing hERG; higher = less effect of the substance
Experimental: Briefly, Chinese hamster ovary (CHO) cells stably expressing the hERG channel were dislodged from tissue culture flasks and dispensed into PPC plates. […] During the recording, background leak currents were estimated by a 100 ms step to -80 mV from an initial holding potential of -70 mV and subtracted from the subsequent current measurement. The campaign was conducted in two phases using slight differences in recording protocol. […]
Hit rate of the full screen: of about 310,000 compounds, about 14,000 (4.5%) showed an effect of 50% or more. The effect is printed as a negative number. Only a selection was taken, and strong results are over-represented in it overall.
quantity: hERG current change (%, negative = inhibition) at 10uM
Numeric answer plus unit only.

stdin: Provide only the value of recorded hERG current change (%, negative = inhibition) at 10uM for C=C1C(=O)C=C2CN(C(=O)c3ccccc3)[C@@](Cc3ccc(F)cc3)(C(=O)OC)[C@@H]12
stdout: -3.22%

stdin: State its hERG current change (%, negative = inhibition) at 10uM: COc1ccc(CCNC(=O)c2cc(S(=O)(=O)N(C)C)ccc2N2CCCC2)cc1
stdout: 4.26%

stdin: Please report hERG current change (%, negative = inhibition) at 10uM for the following molecule: O=C(c1ccc(N2C(=O)CCC2=O)cc1)N1CCOCC1
stdout: 7.4%

stdin: Dear colleague, please send me the reported hERG current change (%, negative = inhibition) at 10uM for COc1ccc(Cl)cc1N(CC(=O)NCC(C)C)S(=O)(=O)c1ccc(C)c([N+](=O)[O-])c1 when you can.
stdout: 8.34%

stdin: Provide only the value of recorded hERG current change (%, negative = inhibition) at 10uM for O=[N+]([O-])c1cccnc1S(=O)(=O)c1ccccc1
stdout: 15.9%

----------
Target: human ether-à-go-go-related gene (hERG) potassium channel (human, UniProt Q12809);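 also: peak tail current of the secondary pulse compared with the same well before compound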
Assay: primary screen, population patch clamp on CHO cells stably expressing hERG; higher = less effect of the substance
Among all 310,000 compounds or so, about 14,000 (4.5%) showed an effect of 50% or more. Effects have a minus sign here. The list comes from a sample in which strong results are over-represented; it also holds close analogues and randomly drawn compounds.
quantity: hERG current change (%, negative = inhibition) at 10uM (%)
Field: numeric (%). Do not append units.

stdin: Answer with the recorded hERG current change (%, negative = inhibition) at 10uM of CC(=N)C1=C(O)CC(C)(C)CC1=O only.
stdout: 1.84

stdin: Identify measured hERG current change (%, negative = inhibition) at 10uM corresponding to Cc1ccccc1NC(=O)c1cccc2nc3ccccc3nc12
stdout: 13.8

stdin: Retrieve hERG current change (%, negative = inhibition) at 10uM measured for CCOCCCNC(=O)CN1CCN(S(=O)(=O)c2ccc3c(c2)CCC3)CC1 and print it.
stdout: 3.99

stdin: Complete the entry with hERG current change (%, negative = inhibition) at 10uM for COC(=O)CCC(=O)OC1(C)C(=O)C=C2C=C(C3CC3)N(C(CO)CO)C=C2C1=O (stereo not drawn)
stdout: 5.72

stdin: Output hERG current change (%, negative = inhibition) at 10uM of COc1ccc2sc(N(CCN(C)C)C(=O)c3ccc4ccccc4c3)nc2c1.Cl
stdout: -0.0157

stdin: Give me measured hERG current change (%, negative = inhibition) at 10uM, please, for this molecule: CCN(Cc1ccccc1)S(=O)(=O)c1ccc(C(=O)N(CCCN(C)C)c2nc3c(C)c(C)ccc3s2)cc1.Cl
stdout: -3.58

stdin: Find the measured hERG current change (%, negative = inhibition) at 10uM of C=CCNC(=O)C(C(=O)OCC)C1CCCCC1 (stereo not drawn) and report it.
stdout: -53.3

stdin: Give the reported hERG current change (%, negative = inhibition) at 10uM for this molecule. CCc1ccc(NC2=NCCCS2)cc1
stdout: -9.94

stdin: Identify hERG current change (%, negative = inhibition) at 10uM associated with the molecule Cc1cccc(C)c1NC(=O)NNC(=O)c1cc(C(C)(C)C)nn1Cc1ccccc1
stdout: 0.818

stdin: Provide one value: measured hERG current change (%, negative = inhibition) at 10uM of CC(Sc1nc(-c2ccccc2)cc(C(F)(F)F)n1)C(=O)N1CCCCC1 (stereo not drawn)
stdout: -17.9

stdin: Supply recorded hERG current change (%, negative = inhibition) at 10uM for N#Cc1ccc(S(=O)(=O)N2CCN(Cc3cccs3)CC2)cc1 here.
stdout: -61.2

stdin: Look up and report measured hERG current change (%, negative = inhibition) at 10uM for this entry: Cc1noc(C)c1COc1cccc(C(=O)NCc2ccccc2Cl)c1
stdout: -11.3

stdin: Please list hERG current change (%, negative = inhibition) at 10uM recorded for the molecule CCCCCCNC(=O)C(C(=O)OCC)C1CCCCC1 (stereo not drawn)
stdout: -4.59

stdin: Quick one: give measured hERG current change (%, negative = inhibition) at 10uM for CC[C@@H](C)[C@H](NC(=O)Cc1c(C)c2cc3c(C)coc3c(C)c2oc1=O)C(=O)O
stdout: 6.21

stdin: Give the measured hERG current change (%, negative = inhibition) at 10uM for CC(=O)Nc1ccc(S(=O)(=O)N2CCN(Cc3cccs3)CC2)cc1.O=C(O)C(=O)O
stdout: -7.69

stdin: Give reported hERG current change (%, negative = inhibition) at 10uM value for CCOc1ccc(/C=N/NC(=O)C2CC2)c(OCC)c1
stdout: 2.21

stdin: Quick one: give measured hERG current change (%, negative = inhibition) at 10uM for O=C(Nc1cccc2ccccc12)c1cnsn1
stdout: 5.58

stdin: Input CCOC(=O)N1CCN(Cc2cn3ccccc3n2)CC1.O=C(O)C(=O)O , output reported hERG current change (%, negative = inhibition) at 10uM.
stdout: 21.9

stdin: Tell me measured hERG current change (%, negative = inhibition) at 10uM for O=C(NCc1cccs1)C1CCN(S(=O)(=O)c2ccccc2F)CC1 please.
stdout: 10.4

stdin: Read off the recorded hERG current change (%, negative = inhibition) at 10uM for CCN(Cc1ccccc1)S(=O)(=O)c1ccc(C(=O)N(CCCN(C)C)c2nc3c(F)cccc3s2)cc1.Cl
stdout: -66.3

stdin: Read off the recorded hERG current change (%, negative = inhibition) at 10uM for COc1ccc2nc(N(CCN(C)C)C(=O)c3ccc(C(=O)c4ccccc4)cc3)sc2c1.Cl
stdout: -39.2

----------
Biological target: human ether-à-go-go-related gene (hERG) potassium channel (human, UniProt Q12809);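 also: peak tail current of the secondary pulse compared with the same well before compound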
Assay: primary screen, population patch clamp on CHO cells stably expressing hERG; higher = less effect of the substance
In all, about 310,000 compounds went through this assay and about 14,000 (4.5%) showed an effect of 50% or more. Effects have a minus sign here. The entries come from a sample that favours strong results as a whole.
quantity: hERG current change (%, negative = inhibition) at 10uM (%)
Quick note: give the figure in %, leave out the unit.

stdin: For the compound Cc1ccc(SC[C@H](Cc2ccccc2)N2CCN(CCc3ccccc3)CCC2=O)cc1 , give its reported hERG current change (%, negative = inhibition) at 10uM.
stdout: -17.9

stdin: Write down hERG current change (%, negative = inhibition) at 10uM measured for item O=C(N/N=C/c1ccccc1[N+](=O)[O-])c1cccs1
stdout: 5.65

stdin: Tell me hERG current change (%, negative = inhibition) at 10uM reported for CC(C)C(CO)N1CCN(Cc2ccccc2)CCC1=O (centres unmarked)
stdout: 4.74

stdin: Annotate the compound CC(C)[C@@H](CSc1ccccc1)N1CCN(Cc2ccccc2)CCC1=O with its measured hERG current change (%, negative = inhibition) at 10uM.
stdout: -63.4

stdin: Return hERG current change (%, negative = inhibition) at 10uM for the following compound: O=C1CCN(Cc2ccc(Br)cc2)CCN1[C@H](CO)Cc1ccccc1
stdout: -10.4

----------
Target: human ether-à-go-go-related gene (hERG) potassium channel (human);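 also: peak tail current of the secondary pulse compared with the same well before compound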
Assay: primary screen, population patch clamp on CHO cells stably expressing hERG; higher = less effect of the substance
The whole screen tested about 310,000 compounds, of which about 14,000 (4.5%) showed an effect of 50% or more. Effects have a minus sign here. The sample as a whole holds a higher share of strong results than the screen did.
quantity: hERG current change (%, negative = inhibition) at 10uM

stdin: Tell me measured hERG current change (%, negative = inhibition) at 10uM for CCn1nc(C(=O)Nc2cccc(S(=O)(=O)N3CCCC3)c2)c2ccccc2c1=O please.
stdout: -22.3%

stdin: Consider the molecule COCCN=c1scc(-c2cccs2)n1/N=C(\C)c1ccco1 . State its measured hERG current change (%, negative = inhibition) at 10uM.
stdout: -2.51%

stdin: Annotate the molecule CCN1CCN(c2cc(N3CCc4ccccc4C3)c(F)cc2[N+](=O)[O-])CC1 with its measured hERG current change (%, negative = inhibition) at 10uM.
stdout: -51.9%

stdin: Complete the entry with hERG current change (%, negative = inhibition) at 10uM for Cc1cc(C)nc(N(C#N)Cc2ccccc2Cl)n1
stdout: 4.48%

stdin: Quickly give me recorded hERG current change (%, negative = inhibition) at 10uM for Cc1cc(C)nc(N(C#N)Cc2cccc3ccccc23)n1
stdout: 3.61%

stdin: Determine from records and report hERG current change (%, negative = inhibition) at 10uM for CN1CCN(c2cc(N3CCc4ccccc4C3)c(F)cc2[N+](=O)[O-])CC1
stdout: -44.2%

stdin: Supply recorded hERG current change (%, negative = inhibition) at 10uM for Cc1ccc(NC(=O)c2ccc(Cl)c(N3C(=O)C=CC3=O)c2)cc1 here.
stdout: -0.826%

stdin: State its hERG current change (%, negative = inhibition) at 10uM for this molecule: Cc1cc(C)nc(N(C#N)Cc2ccccc2C)n1
stdout: -51.4%

stdin: Give hERG current change (%, negative = inhibition) at 10uM for CCOc1ccc(Oc2ccc(C(F)(F)F)cc2NC(=O)C2=COCCO2)cc1
stdout: 13.6%

stdin: Quick one: give measured hERG current change (%, negative = inhibition) at 10uM for CC(=O)N1CCN(c2cc(N3CCc4ccccc4C3)c(F)cc2[N+](=O)[O-])CC1
stdout: -41.3%
